I'd be grateful if you could share measured apparent Kd for these entries.
- Tested on: MS2 coat protein
- Measurement Notes: apparent Kd, MS2 coat protein; higher = weaker binding; RNA-MaP array; FMN 200 µM where present
- Measurement Setup: ligand present: flavin mononucleotide; designed as: OFF switch for flavin mononucleotide
Just the number please, in µM, no unit attached.

Any idea what apparent Kd came out for CGCAACUCUUCACAUGUAAACAUGAGGAUCACCCAUGUAAUGAGAAGGAGGAAGAAGAGAGAUUCCUAGGAUAUCAGAGUUGCG on MS2 coat protein?
0.00652

And then AAUAACAGAGGAUAUACUGUUUUAUGUGUUUAUUGUUUUAAACAUGAGGAUCACCCAUGUAGAAGGCUGAAUAA , what is it?
0.0278

Try the sequence UUUUUGUGAGGAUAUUAGUAGUAAAUAAAUAAAAUUAUUACUGAGAAGGCACAUGAGGAUCACCCAUGUUCCUU
0.0681

Repeat for the following sequence: UAUGGUUAAGUCAGGAUAUACGUGCAGUUUUCUGAGUAGAAGGGACAUGAGGAUCACCCAUGUAUGGUAGUGUU
0.0736

Here is the next sequence: CAGGUAGACUGAGGAUAUACACUAAACAGCUAGUCUAUCUAGCUGGUCACAUGAGGAUCACCCAUGUAGAAGGCAGUCUGCCUG
0.0359

Could you do the same for UGUGUGUCAGGAUAUCGCGCGCGCGCGGAAAUGUGUGUGUGUGAGAAGGGACAUGAGGAUCACCCAUGUGCGCG , please?
0.263

Would you kindly repeat that for GCCUUAUCCGUCAGGAUAUACAGUUGUUAGUUGUUGUAGAAGGGACAUGAGGAUCACCCAUGUACAUUACAUUG ?
0.0226
